Molecular target: SauVRS (valyl-tRNA synthetase from Staphylococcus aureus) (Staphylococcus aureus, UniProt Q2FXR8)
Construct: made in house; host or cells: Escherichia coli M15
Sequence (Q2FXR8 whole entry): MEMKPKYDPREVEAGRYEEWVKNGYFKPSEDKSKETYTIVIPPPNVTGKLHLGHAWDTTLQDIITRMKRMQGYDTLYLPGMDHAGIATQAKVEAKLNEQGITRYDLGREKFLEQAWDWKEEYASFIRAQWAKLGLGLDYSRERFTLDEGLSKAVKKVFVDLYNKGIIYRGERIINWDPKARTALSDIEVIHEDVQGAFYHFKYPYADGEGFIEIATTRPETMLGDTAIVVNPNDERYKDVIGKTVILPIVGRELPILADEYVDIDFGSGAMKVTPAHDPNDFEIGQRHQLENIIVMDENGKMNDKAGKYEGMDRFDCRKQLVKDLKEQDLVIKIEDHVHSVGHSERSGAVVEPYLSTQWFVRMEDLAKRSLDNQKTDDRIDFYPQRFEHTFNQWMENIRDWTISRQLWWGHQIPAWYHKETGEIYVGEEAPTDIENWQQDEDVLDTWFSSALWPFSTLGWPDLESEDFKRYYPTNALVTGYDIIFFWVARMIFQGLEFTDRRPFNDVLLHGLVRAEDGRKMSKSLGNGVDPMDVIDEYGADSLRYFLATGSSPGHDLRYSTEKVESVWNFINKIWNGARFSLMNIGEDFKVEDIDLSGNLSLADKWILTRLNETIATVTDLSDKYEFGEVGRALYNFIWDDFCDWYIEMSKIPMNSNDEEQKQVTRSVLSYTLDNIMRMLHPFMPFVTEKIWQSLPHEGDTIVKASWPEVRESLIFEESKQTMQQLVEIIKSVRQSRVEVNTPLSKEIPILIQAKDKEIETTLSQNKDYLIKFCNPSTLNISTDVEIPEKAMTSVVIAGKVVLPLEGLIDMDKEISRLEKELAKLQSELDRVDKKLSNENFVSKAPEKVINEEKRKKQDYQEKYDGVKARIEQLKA
Experiment: aaRS aminoacylation assay (ATP consumption), SauVRS
Assay type: biochemical
Settings: i.a. = inactive at a concentration below 50 uM
attribute.measured: IC50 SauVRS

Some molecules with recorded IC50 SauVRS:
CC(C)C[C@H](N)C(=O)NS(=O)(=O)c1cccc(-c2ccccc2)c1 [Compound 5.9] : i.a
CC(C)C[C@H](N)C(=O)NS(=O)(=O)c1cccc2c1OCCC2 [Compound 5.25] : i.a
Cc1cc(-c2cccc(S(=O)(=O)NC(=O)[C@@H](N)CC3CCCCC3)c2)nc(N)n1 [Compound 5.34] : i.a
Cc1cc(-c2cccc(S(=O)(=O)NC(=O)[C@@H](N)CC(C)C)c2)nc(N)n1 [Compound 5.35] : i.a.
CC(C)C[C@H](N)C(=O)NS(=O)(=O)c1cccc(-c2cc(N(C)C)nc(N)n2)c1 [Compound 5.28] : i.a

// batch mode: one IC50 SauVRS value per listed entry
1. COc1cc(-c2cccc(S(=O)(=O)NC(=O)[C@@H](N)CC(C)C)c2)nc(N)n1 [Compound 5.36]
2. CC(C)C[C@H](N)C(=O)NS(=O)(=O)c1ccc2ccccc2c1 [Compound 5.14]
3. Cc1cc(-c2cccc(S(=O)(=O)NC(=O)[C@@H](N)CC3CCC3)c2)nc(N)n1 [Compound 5.31]
4. CC(C)C[C@H](N)C(=O)NS(=O)(=O)c1cccc2cccnc12 [Compound 5.19]
5. CSc1cc(-c2cccc(S(=O)(=O)NC(=O)[C@@H](N)CC(C)C)c2)nc(N)n1 [Compound 5.29]
6. CC[C@H](C)[C@H](N)C(=O)NS(=O)(=O)c1cccc(-c2cc(C)nc(N)n2)c1 [Compound 5.40]

Completion:
1: i.a.; 2: i.a; 3: i.a; 4: i.a; 5: i.a; 6: i.a.
